tested on: RARa:RXR (NR concentration 270 nM, RXRa partner concentration 90 nM); assay: PBM binding z-score (relative to random genomic background probes); higher = stronger binding; sequences stand for … in GC…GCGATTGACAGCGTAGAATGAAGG
Known PBM binding z-score of a selection of sequences
Number only, no unit.

See these solved cases before continuing.
[[record]]
inputsequence = "CGAACTAGGTCACCAGGACAGCGAAGAGGTTGGA"
testresult = 2.32

[[record]]
inputsequence = "ATATGTAGGTCAGCTGGGGTCATTCAGACTAGGC"
testresult = 6.74

[[record]]
inputsequence = "CGTCCAAGGTCATGGGAGGTCAGTGAAGACAGAT"
testresult = 6.5

[[record]]
inputsequence = "CGGACTAGGTCACCAGGACAGTGAAGAGGTTGGA"
testresult = 2.09

[[record]]
inputsequence = "AGAATGAGGTTAACAAAGATCAGGGAAACGCTTG"
testresult = 2.07

[[record]]
inputsequence = "CAAACTAGGTCACGAAAGGTCAAAGTGGAATGAC"
testresult = 7.85

[[record]]
inputsequence = "CAAAGTAGGTCACGAAAGGTCAAAGTCGAATGAC"
testresult = 7.43

[[record]]
inputsequence = "ATATGTACGTTAGGGTCATTCAGAAAGTAGGGAA"
testresult = 4.93

[[record]]
inputsequence = "CCTGCTAGGACAATGGTCAGCTAAAGCAGCTCGC"
testresult = -0.928

[[record]]
inputsequence = "ATATCTAGGTAAAAGTTCAGTGAATCCCGAGGAT"
testresult = 1.6


Quick one: PBM binding z-score of `CGAACTAGGTCACCAGGCCAGTGAAGAGGTTGGA` ? 2.73

Repeat with `GCTAGTGGGTCAGTAAAAGGTCACACACCGGTCG` 7.01

Repeat with `CGAACTAGGGCAAAGGACAGTGAAAGGCGACGTA` -0.393

Repeat with `TATTGTAGATCAAAGGTTAAGAAAGCCGAAGCCT` 3.1

###

tested on: PPARg:RXRa 90nM:30nM, anti-RXR (NR concentration 90 nM, RXRa partner concentration 30 nM); assay: PBM binding z-score (relative to random genomic background probes); higher = stronger binding; sequences stand for … in GC…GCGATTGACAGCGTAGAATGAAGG
Known PBM binding z-score of a selection of sequences

[[record]]
inputsequence = "CGATGTAGGTTAAGGGGGTCATTCAGTTTGAAAG"
testedon = "PPARg:RXRa 90nM:30nM, anti-RXR (NR concentration 90 nM, RXRa partner concentration 30 nM)"
testresult = 7.61

[[record]]
inputsequence = "TAGCCTAGGTCATTGGACCAGTATAGTACGCATC"
testedon = "PPARg:RXRa 90nM:30nM, anti-RXR (NR concentration 90 nM, RXRa partner concentration 30 nM)"
testresult = 2.07

[[record]]
inputsequence = "ACTAGTTGGTCAGCTGAGGTAACACACAATTCGG"
testedon = "PPARg:RXRa 90nM:30nM, anti-RXR (NR concentration 90 nM, RXRa partner concentration 30 nM)"
testresult = -0.00453

[[record]]
inputsequence = "CGTCCAAGGTCAGTGAGGTCAGTGAATGCCGAGT"
testedon = "PPARg:RXRa 90nM:30nM, anti-RXR (NR concentration 90 nM, RXRa partner concentration 30 nM)"
testresult = 2.61

[[record]]
inputsequence = "CGTCTAAGGTCAAAGGTCAGTGAAGAGATGACGG"
testedon = "PPARg:RXRa 90nM:30nM, anti-RXR (NR concentration 90 nM, RXRa partner concentration 30 nM)"
testresult = 10.3

[[record]]
inputsequence = "ATATGTAGGTTAGTGTCATTCAGAAAGTAGGGAA"
testedon = "PPARg:RXRa 90nM:30nM, anti-RXR (NR concentration 90 nM, RXRa partner concentration 30 nM)"
testresult = 2.8

[[record]]
inputsequence = "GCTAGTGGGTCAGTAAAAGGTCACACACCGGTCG"
testedon = "PPARg:RXRa 90nM:30nM, anti-RXR (NR concentration 90 nM, RXRa partner concentration 30 nM)"
testresult = 5.34

[[record]]
inputsequence = "CAAACTAGGTCACGAAAGGTCAAAGTTGAATGAC"
testedon = "PPARg:RXRa 90nM:30nM, anti-RXR (NR concentration 90 nM, RXRa partner concentration 30 nM)"
testresult = 8.74

[[record]]
inputsequence = "ACTAGCAGGCCAAGAGTCACTCAAGATTAGTCCG"
testedon = "PPARg:RXRa 90nM:30nM, anti-RXR (NR concentration 90 nM, RXRa partner concentration 30 nM)"
testresult = 3.48

[[record]]
inputsequence = "CTATGTAGGTTAACGGGGTCATTCAGTTTGAAAG"
testedon = "PPARg:RXRa 90nM:30nM, anti-RXR (NR concentration 90 nM, RXRa partner concentration 30 nM)"
testresult = 6.47


Quick one: PBM binding z-score of `TCGAGTAGGTTACTGGGGCATTCAGGGATGAAGA` ? 3.46

Repeat with `AGTCAAAGTTCATCTTGGTAACGTAAGATATGCT` 5.53
